Where these numbers come from: PubChem BioAssay

Assign z-score to each entry below.
# Assay Info: E. coli acrAB mutant growth effects, primary screen, E. coli filamentation inducers, strain DRC39, OD650, 48 h (AID 1179);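 also: screen aims at cell division blockers that make cells filament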
# Test Context: E. coli DRC39 delta-acrAB growth, higher = more signal, called active from +8 up or from −8 down
Answers are plain numbers.

Solved cases below.
{"Compound": "CCC1=NOC(CCC2CC(OC(=O)NCc3cccc4c3OCO4)CC3(CCCC(COC(=O)NCCc4ccccc4OC)O3)O2)C1 (configuration not stated)", "Recorded Value": 0.918}
{"Compound": "CO[C@H]1COC(=O)CC=C[C@H](C)[C@@H](OC)COC(=O)[C@@H](C)COC(=O)CC=C[C@@H]1C", "Recorded Value": -0.979}
{"Compound": "COC(=O)CC=C[C@@H](C)[C@H](OCc1cccc(-c2ccccc2)c1)C1CCCCC1", "Recorded Value": -0.661}
{"Compound": "CC(C)CON=C1C[C@@H](O)[C@@H](O)[C@@H]2[C@@H]3C(=O)N(c4ccc(F)cc4F)C(=O)[C@@H]3CC[C@H]12", "Recorded Value": -0.382}
{"Compound": "CCOC(=O)[C@H](Cc1ccccc1)NC(=O)CCC1CC(OC(=O)NCc2ccc3c(c2)OCO3)CC2(CCCC(COC(=O)NCCc3ccccc3OC)O2)O1 (some centres not stated)", "Recorded Value": -0.731}
{"Compound": "CCN1C(=O)[C@H]2[C@H]3[C@H](O)[C@H](O)CC(=O)[C@@H]3CC[C@H]2C1=O", "Recorded Value": -0.164}

Okay, next one:
Look at this compound and give its reported z-score. CC(C)CON=C1C[C@@H](O)[C@@H](O)[C@@H]2[C@@H]3C(=O)N(Cc4ccc5c(c4)OCO5)C(=O)[C@@H]3CC[C@H]12
-0.0961

====

# Test system: glycogen synthase kinase-3 (GSK3A per assay name; protocol says GSK3B)
# Assay Info: GSK3 binders on small-molecule microarrays, primary screen, biochemical, small-molecule microarray, 635 nm fluorescence, GSK3A (AID 1103); also: the record names both GSK3A and GSK3B
# Test Context: small-molecule microarray binding, fluorescence 635 nm; higher = more signal
Assign composite z-score to each entry below.
Answers are plain numbers.

{"Molecule": "CCOC(=O)NN=C1C[C@@H](O)[C@@H](O)[C@@H]2[C@@H]3C(=O)N(c4cccc(Oc5ccccc5)c4)C(=O)[C@@H]3CC[C@@H]12", "composite z-score": -0.652}

I would be grateful if you could provide composite z-score for each of the following entries.
1. COc1cccc([C@H]2Oc3ccc(OC)cc3C(=NOC[C@@H](C)[C@H](OCc3ccccc3)C(C)C)[C@@H]2O)c1
2. O=c1n(Cc2cc3c(cc2Cl)OCO3)c(=O)n2n1CC[C@@H]1C(=NOCc3ccccc3)[C@H]3O[C@H]3[C@@H](O)[C@@H]12
3. CCOC(=O)[C@H](CC(C)C)NC(=O)CCC1CC(OC(=O)NCc2cccc3ccccc23)CC2(CCCC(COC(=O)NCCOC)O2)O1 (stereo not given in full)

0.332
0.432
1.3

I would be grateful if you could provide composite z-score for each of the following entries.
1. COC(=O)[C@H]1[C@@H](O)[C@@]2(O)c3ccccc3O[C@@]2(c2ccccc2)[C@@H]1c1ccccc1
2. CCOC(=O)[C@H](Cc1ccccc1)NC(=O)CCC1CC(OC(=O)NCc2cccc3ccccc23)CC2(CCCC(COC(=O)NCc3ccccc3)O2)O1 (stereo not given in full)

-0.0393
-0.231

I would be grateful if you could provide composite z-score for each of the following entries.
1. COc1cccc([C@H]2Oc3ccc(OC)cc3C(=NO[C@@H](C)c3cn([C@H](CO)Cc4ccccc4)nn3)[C@@H]2O)c1
2. O=C1[C@H]2[C@H]3[C@H](O)[C@H](O)CC(=NOC[C@@H](O)COCc4ccco4)[C@H]3CC[C@H]2C(=O)N1C[C@@H]1CCCO1
3. O=C1C[C@@H](O)[C@@H](O)[C@@H]2[C@@H]3C(=O)N(c4cccc(Oc5ccccc5)c4)C(=O)[C@@H]3CC[C@H]12
4. CCOC(=O)NN=C1C[C@@H](O)[C@@H](O)[C@@H]2[C@@H]3C(=O)N(c4cccc(Oc5ccccc5)c4)C(=O)[C@@H]3CC[C@H]12
5. CCC1=NOC(CCC2CC(OC(=O)NCc3cccc4c3OCO4)CC3(CCCC(COC(=O)NCCc4ccccc4OC)O3)O2)C1 (stereo not given)

1. -0.58
2. 1.2
3. 0.572
4. 0.176
5. 0.391

I would be grateful if you could provide composite z-score for each of the following entries.
1. COc1ccc(O[C@H]2C=C[C@@H](c3ccccc3)O[C@@H]2COC(=O)CCC(C)=NO[C@@H]2O[C@H](COC(C)=O)[C@@H](OC(C)=O)[C@H](OC(C)=O)[C@H]2OC(C)=O)cc1
2. CCN1C(=O)[C@H]2[C@H]3[C@H](O)[C@H](O)CC(=NNC(=O)OCc4ccc(OC)cc4)[C@@H]3CC[C@H]2C1=O
3. CCOC(=O)[C@H](Cc1ccccc1)NC(=O)CCC1CC(OC(=O)NCCc2ccc(F)cc2)CC2(CCCC(COC(=O)NCCOC)O2)O1 (stereo not given in full)
4. COc1ccc(O[C@H]2C=C[C@@H](c3ccccc3)O[C@@H]2CON=C(C)C)cc1
5. COCCNC(=O)OCC1CCCC2(CC(OC(=O)NCc3ccc4c(c3)OCO4)CC(CCC(=O)N[C@@H](C)C(=O)OC)O2)O1 (stereo not given in full)

1: 1.01; 2: 0.269; 3: 0.614; 4: -1.12; 5: 0.953
